- System: MALME-3M
- assay_overview: NCI in vitro 60-cell drug screen (SRB assay)
- Assay type: cell-based
- condition_parameters: MALME-3M (Melanoma); 10^-5 molar concentration; 48 hours
reported_property: Growth percent (%)
// return numeric value only (unit: %, not printed)

For the compound `O=c1c2cc(Cl)ccc2sc2c(N3CCN(Cc4ccccc4)CC3)nc3ccccc3c12` , the measured Growth percent on MALME-3M was 112.36

Reading of Growth percent for `O=c1c2cc(Cl)ccc2sc2c(O)nc3ccccc3c12` with MALME-3M: 93.26

Response field Growth percent (MALME-3M) for item `CN1CCN(c2nc3ccccc3c3c(=O)c4cc(Cl)ccc4sc23)CC1` : 108.36

Growth percent value, target or system MALME-3M, for `O=c1c2cc(Cl)ccc2sc2c(N3CCN(CCO)CC3)nc3ccccc3c12` : 119.20

Item: `O=c1c2cc(Cl)ccc2sc2c(N3CCN(c4ccccc4)CC3)nc3ccccc3c12` | System: MALME-3M | Growth percent: 121.84

Response field Growth percent (MALME-3M) for item `COc1nc2ccccc2c2c(=O)c3cc(Cl)ccc3sc12` : 94.19

Observed Growth percent on MALME-3M, entry `O=c1c2cc(Cl)ccc2sc2c(N3CCOCC3)nc3ccccc3c12` , equals 118.84

The observed Growth percent for `O=c1c2ccc(Cl)cc2sc2c(Cl)nc3ccccc3c12` when tested with MALME-3M stands at 95.87

Known value: MALME-3M Growth percent of the compound `O=C(O)c1c(Sc2ccc(Cl)cc2)c(O)nc2ccccc12` equals 107.05

Growth percent value, target or system MALME-3M, for `CN(C)c1nc2ccccc2c2c(=O)c3cc(Cl)ccc3sc12` : 89.70

---

- System: COLO 205
- assay_overview: NCI in vitro 60-cell drug screen (SRB assay)
- Type: cell-based
- condition_parameters: COLO 205 (Colon cancer); 10^-5 molar concentration; 48 hours
Kindly supply the reported Growth percent values for the records listed here.
// note: answer is a bare numeric in %

The value of Growth percent recorded for O=c1c2cc(Cl)ccc2sc2c(N3CCOCC3)nc3ccccc3c12 [Compound 13] when tested on COLO 205 reads 99.24

The compound O=c1c2cc(Cl)ccc2sc2c(O)nc3ccccc3c12 [Compound 4] on COLO 205: Growth percent was 93.69

Measured on COLO 205, CN(C)c1nc2ccccc2c2c(=O)c3cc(Cl)ccc3sc12 [Compound 6] has a documented Growth percent of 89.67

Form: item O=C(O)c1c(Sc2ccc(Cl)cc2)c(O)nc2ccccc12 [Compound 2] ; test system COLO 205; Growth percent: 108.65

Entry O=c1c2cc(Cl)ccc2sc2c(N3CCN(CCO)CC3)nc3ccccc3c12 [Compound 10] , tested on COLO 205, has a reported Growth percent of 88.90

Item O=c1c2ccc(Cl)cc2sc2c(Cl)nc3ccccc3c12 [Compound 3] ; assay system COLO 205; Growth percent reported as 112.15

So the reported Growth percent for COc1nc2ccccc2c2c(=O)c3cc(Cl)ccc3sc12 [Compound 5] , on COLO 205, turned out to be 97.94

Growth percent value, target or system COLO 205, for O=c1c2cc(Cl)ccc2sc2c(N3CCN(c4ccccc4)CC3)nc3ccccc3c12 [Compound 12] : 111.67

Response field Growth percent (COLO 205) for item CN1CCN(c2nc3ccccc3c3c(=O)c4cc(Cl)ccc4sc23)CC1 [Compound 8] : 90.06

Known value: COLO 205 Growth percent of the compound O=c1c2cc(Cl)ccc2sc2c(N3CCN(Cc4ccccc4)CC3)nc3ccccc3c12 [Compound 11] equals 105.64

---

I'd appreciate it if you could supply Growth percent values for the items below.
- Test system: T-47D
- assay_overview: NCI in vitro 60-cell drug screen (SRB assay)
- Format: cell-based
- condition_parameters: T-47D (Breast cancer); 10^-5 molar concentration; 48 hours
# output: bare number, implied unit %

`CN1CCN(c2nc3ccccc3c3c(=O)c4cc(Cl)ccc4sc23)CC1` has a reported Growth percent of 82.24

molecule `O=c1c2cc(Cl)ccc2sc2c(O)nc3ccccc3c12` , Growth percent observed: 77.89

Data point: `O=c1c2cc(Cl)ccc2sc2c(N3CCOCC3)nc3ccccc3c12` ; Growth percent = 80.00

Lab book: Growth percent of `O=c1c2cc(Cl)ccc2sc2c(N3CCN(CCO)CC3)nc3ccccc3c12` noted as 87.22

Value of Growth percent reported for the molecule `COc1nc2ccccc2c2c(=O)c3cc(Cl)ccc3sc12` is 68.46

---

- System: DU-145
- assay_overview: NCI in vitro 60-cell drug screen (SRB assay)
- Assay type: cell-based
- condition_parameters: DU-145 (Prostate cancer); 10^-5 molar concentration; 48 hours
Please go through the items and note down their Growth percent.
Numeric only. Scale: %

Given item COc1nc2ccccc2c2c(=O)c3cc(Cl)ccc3sc12 [Compound 5] , the value recorded as its Growth percent is 104.27

# Growth percent of O=c1c2cc(Cl)ccc2sc2c(N3CCN(CCO)CC3)nc3ccccc3c12 [Compound 10] = 96.26

# compound O=c1c2ccc(Cl)cc2sc2c(Cl)nc3ccccc3c12 [Compound 3] ; its Growth percent = 114.27

Noted for O=c1c2cc(Cl)ccc2sc2c(O)nc3ccccc3c12 [Compound 4] : its Growth percent reads 99.80

Input CN(C)c1nc2ccccc2c2c(=O)c3cc(Cl)ccc3sc12 [Compound 6] . Output Growth percent: 92.93

---

- Tested on: HCT-116
- assay_overview: NCI in vitro 60-cell drug screen (SRB assay)
- Assay type: cell-based
- condition_parameters: HCT-116 (Colon cancer); 10^-5 molar concentration; 48 hours
I'd be grateful if you could share measured Growth percent for these entries.
The reply should contain only the number, in %.

For `O=c1c2cc(Cl)ccc2sc2c(N3CCN(CCO)CC3)nc3ccccc3c12` the compound record lists Growth percent as 69.33

get_value(item= `O=c1c2cc(Cl)ccc2sc2c(N3CCN(c4ccccc4)CC3)nc3ccccc3c12` , readout=Growth percent) returns 105.36

The value of Growth percent measured for the compound `O=C(O)c1c(Sc2ccc(Cl)cc2)c(O)nc2ccccc12` turned out to be 103.87

Record `O=c1c2ccc(Cl)cc2sc2c(Cl)nc3ccccc3c12` . Reported Growth percent: 102.27

What the record says about `CN1CCN(c2nc3ccccc3c3c(=O)c4cc(Cl)ccc4sc23)CC1` : Growth percent is 80.94

Growth percent recorded for this compound, `O=c1c2cc(Cl)ccc2sc2c(O)nc3ccccc3c12` , is 86.20

Input `O=c1c2cc(Cl)ccc2sc2c(N3CCN(Cc4ccccc4)CC3)nc3ccccc3c12` . Output Growth percent: 98.59

Recorded result, `COc1nc2ccccc2c2c(=O)c3cc(Cl)ccc3sc12` , Growth percent: 89.48

The value of Growth percent measured for the compound `CN(C)c1nc2ccccc2c2c(=O)c3cc(Cl)ccc3sc12` turned out to be 74.26

Lookup result for `O=c1c2cc(Cl)ccc2sc2c(N3CCOCC3)nc3ccccc3c12` ; measured Growth percent: 85.71

---

- Test system: SK-MEL-5
- assay_overview: NCI in vitro 60-cell drug screen (SRB assay)
- Assay type: cell-based
- condition_parameters: SK-MEL-5 (Melanoma); 10^-5 molar concentration; 48 hours
Assign Growth percent to each entry below.

// field: Growth percent; key: O=c1c2cc(Cl)ccc2sc2c(O)nc3ccccc3c12 [Compound 4] ; value = 100.69%

Item: O=c1c2cc(Cl)ccc2sc2c(N3CCN(Cc4ccccc4)CC3)nc3ccccc3c12 [Compound 11] | Growth percent: 98.38%

In plain terms, COc1nc2ccccc2c2c(=O)c3cc(Cl)ccc3sc12 [Compound 5] has a documented Growth percent of 99.74%

Growth percent in this record for O=c1c2ccc(Cl)cc2sc2c(Cl)nc3ccccc3c12 [Compound 3] : 97.42%

Just so you know, measured Growth percent for CN1CCN(c2nc3ccccc3c3c(=O)c4cc(Cl)ccc4sc23)CC1 [Compound 8] came out at 99.54%

Record O=C(O)c1c(Sc2ccc(Cl)cc2)c(O)nc2ccccc12 [Compound 2] . Reported Growth percent: 98.07%

The compound listed as CN(C)c1nc2ccccc2c2c(=O)c3cc(Cl)ccc3sc12 [Compound 6] shows Growth percent equal to 97.92%

GET /value?item= O=c1c2cc(Cl)ccc2sc2c(N3CCOCC3)nc3ccccc3c12 [Compound 13] &field=Growth percent returns 95.88%

Noted for O=c1c2cc(Cl)ccc2sc2c(N3CCN(CCO)CC3)nc3ccccc3c12 [Compound 10] : its Growth percent reads 94.13%

The recorded Growth percent for O=c1c2cc(Cl)ccc2sc2c(N3CCN(c4ccccc4)CC3)nc3ccccc3c12 [Compound 12] is 103.57%

---

- Test system: CAKI-1
- assay_overview: NCI in vitro 60-cell drug screen (SRB assay)
- Type: cell-based
- condition_parameters: CAKI-1 (Renal cancer); 10^-5 molar concentration; 48 hours
reported_property: Growth percent (%)
Numeric only. Scale: %

So for O=c1c2cc(Cl)ccc2sc2c(N3CCOCC3)nc3ccccc3c12 [Compound 13] , the logged Growth percent turned out to be 90.00

Given item O=c1c2cc(Cl)ccc2sc2c(N3CCN(c4ccccc4)CC3)nc3ccccc3c12 [Compound 12] , the value recorded as its Growth percent is 97.83

# Growth percent (compound: O=c1c2ccc(Cl)cc2sc2c(Cl)nc3ccccc3c12 [Compound 3] ) is 94.31

Consider O=c1c2cc(Cl)ccc2sc2c(N3CCN(Cc4ccccc4)CC3)nc3ccccc3c12 [Compound 11] . Its measured Growth percent is 94.03

Measured Growth percent, O=c1c2cc(Cl)ccc2sc2c(N3CCN(CCO)CC3)nc3ccccc3c12 [Compound 10] : 87.87

For this compound ( CN1CCN(c2nc3ccccc3c3c(=O)c4cc(Cl)ccc4sc23)CC1 [Compound 8] ), measured Growth percent is 87.50

For reference, reported Growth percent for O=C(O)c1c(Sc2ccc(Cl)cc2)c(O)nc2ccccc12 [Compound 2] stands at 76.26
